Origin of the recorded values: PubChem BioAssay AID504419

- measured_target: NS3h 1b (con1)
- procedure_text: NS3 helicase inhibitors across HCV genotypes, late-stage follow-up, selectivity assay for HCV NS3 helicase inhibitor project, biochemical, real-time fluorescence, genotypes 2a and 1b, Set 2 (AID 504419)
- protocol_conditions: Recombinant NS3 helicase, real-time fluorescence unwinding
Calls of active or inactive are those of the source. How the calls were made is not given here.
Reply using exactly one outcome from active, inactive

Some entries whose results are on file:
COc1cc(Br)cc(C2C(C(=O)c3ccc(C)o3)=C(O)C(=O)N2Cc2ccco2)c1OC (stereo unspecified); inactive
C/C(=N\NC(N)=S)c1cc(-c2ccccc2)c(-c2ccccc2)s1; inactive
Cc1ccc2nc(-c3ccc4nc(-c5ccc(N)cc5)sc4c3)sc2c1S(=O)(=O)O; inactive
Cc1ccc2nc(-c3ccc4nc(-c5ccc(NC(=O)c6ccc(F)cc6)cc5)sc4c3)sc2c1S(=O)(=O)O; active
Cc1ccc2nc(-c3ccc4nc(-c5ccc(NC(=O)c6ccc(NC(=O)OCC7c8ccccc8-c8ccccc87)cc6)cc5)sc4c3)sc2c1S(=O)(=O)O; active
Cc1ccc2nc(-c3ccc4nc(-c5ccc(NC(=O)c6ccc(Cl)cc6)cc5)sc4c3)sc2c1S(=O)(=O)O; active
COc1ccc(N=Nc2ccc(O)c3ncccc23)c(S(=O)(=O)N(C)C)c1; inactive
CC(C)C(C)(C#N)NC(=O)CSc1nc2scc(-c3ccco3)c2c(=O)n1-c1ccccc1 (stereo unspecified); inactive
Cc1cc(N2C(=O)C(O)=C(C(=O)c3ccc(C)o3)C2c2cc(Cl)cc(Cl)c2)no1 (stereo unspecified); inactive
Cc1ccc2nc(-c3ccc(NC(=O)c4ccc(F)cc4)cc3)sc2c1S(=O)(=O)O; inactive

We now examine a further molecule.
Hi team, can someone confirm the assay call for `Cc1ccc2nc(-c3ccc4nc(-c5ccc(NC(=O)c6ccc(C(F)(F)F)cc6)cc5)sc4c3)sc2c1S(=O)(=O)O` ?
active
